- system-name: Human SARS-CoV-2_Wuhan S (SmT1) (SARS-CoV-2 (Wuhan), UniProt P0DTC2 14-1208)
- assay-name: SPR, VHH over immobilised S
Provide the recorded kon for the entries that follow.
One number for each entry, in M⁻¹ s⁻¹.

>  <binder>
NRCoV2-1d VHH (VHH) VHH: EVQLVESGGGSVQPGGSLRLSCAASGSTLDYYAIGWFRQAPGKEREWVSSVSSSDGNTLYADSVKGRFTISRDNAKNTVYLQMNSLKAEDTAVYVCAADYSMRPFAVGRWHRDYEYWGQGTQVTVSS

>  <unit-annotation>
M⁻¹ s⁻¹

>  <kon>
1.39e+06

$$$$

Hi team, please reply with kon for each item in this list.
1. NRCoV2-MRed07 VHH (VHH) VHH: EVQLVESGGGLVQPGGSLTLSCAASGSIGPFNTMGWYRQAPGNQREPAAIITRGGVTNYADSVKGRFTISRDNAKNAVYLQMDSLKPDDTAVYYCYANYGWAIPYWGNGTQVTVSS
2. NRCoV2-04 VHH (VHH) VHH: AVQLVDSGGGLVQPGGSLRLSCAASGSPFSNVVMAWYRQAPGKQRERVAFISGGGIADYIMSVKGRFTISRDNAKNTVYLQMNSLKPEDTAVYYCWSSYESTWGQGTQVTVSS
3. NRCoV2-MRed04 VHH (VHH) VHH: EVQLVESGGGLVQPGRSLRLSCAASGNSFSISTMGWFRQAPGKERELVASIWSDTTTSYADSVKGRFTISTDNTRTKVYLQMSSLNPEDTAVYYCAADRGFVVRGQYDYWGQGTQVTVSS

4.58e+06
1.84e+06
1.51e+06

The values you see were collected from patent US20240270826A1.
